Test system: PD-L1 antibody
Assay: Peptide antibody dissociation ELISA (PD-L1 antibody)
Type: binding
Conditions: pH 5.4 vs pH 7.2
Protocol: To begin, peptides were immobilized on neutravidin coated and blocked wells. […] After binding at 4 degrees the plates were washed extensively as before. Next the peptides were incubated with either neutral or acidic pH buffers for approximately 30 minutes and then washed again. The specifically peptide bound antibodies were detected by either anti-mouse Fc or anti-mouse kappa chain HRP conjugated antibodies using standard TMB-based chromogenic ELISA procedures. […]
Bridge positions count the residues as written; N and C are the ends. Peptide text beside a SMILES is read from it.
Exercise: for every item that follows, state its recorded pH 5.4: pH 7.2 EC 50 ratio.

Notebook: CSCC[C@H](NC(=O)CNC(=O)CN)C(=O)N[C@H]1CSSC[C@@H](C(=O)N[C@@H](CCC(N)=O)C(=O)O)NC(=O)[C@H](Cc2c[nH]c3ccccc23)NC(=O)[C@H](CC(N)=O)NC(=O)[C@H](CC(C)C)NC(=O)[C@H](CC(N)=O)NC(=O)[C@H](CO)NC(=O)[C@H](Cc2ccc(O)cc2)NC(=O)[C@H](Cc2ccccc2)NC(=O)[C@H](CC(C)C)NC(=O)[C@H](CCC(=O)O)NC(=O)[C@H](Cc2c[nH]cn2)NC1=O [Peptide 22] (H-GGMCHELFYSNLNWCQ-OH; disulfide 4-15) , pH 5.4: pH 7.2 EC 50 ratio read as 7.8

Notebook: CC[C@H](C)[C@H](NC(=O)[C@H](Cc1c[nH]cn1)NC(=O)[C@H](Cc1ccc(O)cc1)NC(=O)[C@@H](NC(=O)[C@H](CO)NC(=O)[C@@H]1CCCN1C(=O)[C@H](Cc1ccc(O)cc1)NC(=O)[C@H](Cc1ccccc1)NC(=O)[C@H](CC(C)C)NC(=O)[C@@H](N)CCC(N)=O)[C@@H](C)O)C(=O)N[C@H](C(=O)N[C@@H](CC(=O)O)C(=O)O)[C@@H](C)CC [Peptide 20] (H-QLFYPSTYHIID-OH) , pH 5.4: pH 7.2 EC 50 ratio read as 6.7

Notebook: CC[C@H](C)[C@@H]1NC(=O)[C@H](CC(=O)O)NC(=O)[C@H](C(C)C)NC(=O)[C@H](CCC(N)=O)NC(=O)[C@@H]2CCCN2C(=O)[C@H](CCC(=O)O)NC(=O)[C@H](Cc2ccc(O)cc2)NC(=O)[C@H](Cc2ccccc2)NC(=O)[C@H]([C@@H](C)O)NC(=O)[C@H](CO)NC(=O)[C@@H](NC(=O)[C@H](CC(C)C)NC(=O)CNC(=O)CN)CSSC[C@@H](C(=O)N[C@@H](Cc2ccc(O)cc2)C(=O)O)NC1=O [Peptide 29] (H-GGLCSTFYEPQVDICY-OH; disulfide 4-15) , pH 5.4: pH 7.2 EC 50 ratio read as 6.5

Notebook: CC(C)C[C@@H]1NC(=O)CNC(=O)[C@H](CO)NC(=O)[C@H](CCCCN)NC(=O)[C@H](CC(N)=O)NC(=O)[C@H](Cc2c[nH]cn2)NC(=O)[C@@H](NC(=O)CNC(=O)CN)CSSC[C@@H](C(=O)O)NC(=O)[C@H](Cc2ccc(O)cc2)NC(=O)[C@H](Cc2c[nH]cn2)NC(=O)[C@H](Cc2ccc(O)cc2)NC(=O)[C@H](Cc2ccccc2)NC1=O [Peptide 24] (H-GGCHNKSGLFYHYC-OH; disulfide 3-14) , pH 5.4: pH 7.2 EC 50 ratio read as 6.6

* * *

Tested on: PD-L1 antibody
Assay: Peptide antibody dissociation ELISA (PD-L1 antibody)
Format: binding
Settings: pH 5.4 vs pH 7.2
Bridge positions count the residues as written; N and C are the ends. Peptide text beside a SMILES is read from it.
quantity_measured: pH 5.4: pH 7.2 EC 50 ratio
Give the value as a plain number.

Notebook: CSCC[C@@H]1NC(=O)[C@H](CC(=O)O)NC(=O)[C@H](C(C)C)NC(=O)[C@@H](NC(=O)[C@H](Cc2c[nH]cn2)NC(=O)CNC(=O)CN)CSSC[C@@H](C(=O)N[C@@H](CCC(N)=O)C(=O)O)NC(=O)[C@H]([C@@H](C)O)NC(=O)[C@H](CCC(N)=O)NC(=O)[C@H](CCC(N)=O)NC(=O)[C@H](Cc2ccc(O)cc2)NC(=O)[C@H](Cc2ccccc2)NC(=O)[C@H](CC(=O)O)NC(=O)[C@H](C(C)C)NC1=O [Peptide 23] (H-GGHCVDMVDFYQQTCQ-OH; disulfide 4-15) , pH 5.4: pH 7.2 EC 50 ratio read as 12.9

* * *

System: PD-L1 antibody
Assay: Peptide antibody dissociation ELISA (PD-L1 antibody)
Assay type: binding
Settings: pH 6.0 vs pH 7.2
Bridge positions count the residues as written; N and C are the ends. Peptide text beside a SMILES is read from it.
quantity_measured: pH 6.0: pH 7.2 EC 50 ratio
Give the value as a plain number.

Reported PD-L1 antibody pH 6.0: pH 7.2 EC 50 ratio for item CSCC[C@H](NC(=O)CNC(=O)CN)C(=O)N[C@H]1CSSC[C@@H](C(=O)N[C@@H](CCC(N)=O)C(=O)O)NC(=O)[C@H](Cc2c[nH]c3ccccc23)NC(=O)[C@H](CC(N)=O)NC(=O)[C@H](CC(C)C)NC(=O)[C@H](CC(N)=O)NC(=O)[C@H](CO)NC(=O)[C@H](Cc2ccc(O)cc2)NC(=O)[C@H](Cc2ccccc2)NC(=O)[C@H](CC(C)C)NC(=O)[C@H](CCC(=O)O)NC(=O)[C@H](Cc2c[nH]cn2)NC1=O [Peptide 22] (H-GGMCHELFYSNLNWCQ-OH; disulfide 4-15) was 1.5

Reported PD-L1 antibody pH 6.0: pH 7.2 EC 50 ratio for item CSCC[C@@H]1NC(=O)[C@H](CC(=O)O)NC(=O)[C@H](C(C)C)NC(=O)[C@@H](NC(=O)[C@H](Cc2c[nH]cn2)NC(=O)CNC(=O)CN)CSSC[C@@H](C(=O)N[C@@H](CCC(N)=O)C(=O)O)NC(=O)[C@H]([C@@H](C)O)NC(=O)[C@H](CCC(N)=O)NC(=O)[C@H](CCC(N)=O)NC(=O)[C@H](Cc2ccc(O)cc2)NC(=O)[C@H](Cc2ccccc2)NC(=O)[C@H](CC(=O)O)NC(=O)[C@H](C(C)C)NC1=O [Peptide 23] (H-GGHCVDMVDFYQQTCQ-OH; disulfide 4-15) was 4.3

Reported PD-L1 antibody pH 6.0: pH 7.2 EC 50 ratio for item CC(C)C[C@@H]1NC(=O)CNC(=O)[C@H](CO)NC(=O)[C@H](CCCCN)NC(=O)[C@H](CC(N)=O)NC(=O)[C@H](Cc2c[nH]cn2)NC(=O)[C@@H](NC(=O)CNC(=O)CN)CSSC[C@@H](C(=O)O)NC(=O)[C@H](Cc2ccc(O)cc2)NC(=O)[C@H](Cc2c[nH]cn2)NC(=O)[C@H](Cc2ccc(O)cc2)NC(=O)[C@H](Cc2ccccc2)NC1=O [Peptide 24] (H-GGCHNKSGLFYHYC-OH; disulfide 3-14) was 2.8

Reported PD-L1 antibody pH 6.0: pH 7.2 EC 50 ratio for item CC[C@H](C)[C@H](NC(=O)[C@H](Cc1c[nH]cn1)NC(=O)[C@H](Cc1ccc(O)cc1)NC(=O)[C@@H](NC(=O)[C@H](CO)NC(=O)[C@@H]1CCCN1C(=O)[C@H](Cc1ccc(O)cc1)NC(=O)[C@H](Cc1ccccc1)NC(=O)[C@H](CC(C)C)NC(=O)[C@@H](N)CCC(N)=O)[C@@H](C)O)C(=O)N[C@H](C(=O)N[C@@H](CC(=O)O)C(=O)O)[C@@H](C)CC [Peptide 20] (H-QLFYPSTYHIID-OH) was 1.7

* * *

Tested on: PD-L1 antibody
Test: Peptide antibody dissociation ELISA (PD-L1 antibody)
Format: binding
Conditions: pH 7.2; read-out: EC50 [M] pH 7.2
Bridge positions count the residues as written; N and C are the ends. Peptide text beside a SMILES is read from it.
Exercise: for every item that follows, state its recorded EC50.
The reply should be a number in M, with the unit left off.

Notebook: CC[C@H](C)[C@H](NC(=O)[C@H](Cc1c[nH]cn1)NC(=O)[C@H](Cc1ccc(O)cc1)NC(=O)[C@@H](NC(=O)[C@H](CO)NC(=O)[C@@H]1CCCN1C(=O)[C@H](Cc1ccc(O)cc1)NC(=O)[C@H](Cc1ccccc1)NC(=O)[C@H](CC(C)C)NC(=O)[C@@H](N)CCC(N)=O)[C@@H](C)O)C(=O)N[C@H](C(=O)N[C@@H](CC(=O)O)C(=O)O)[C@@H](C)CC [Peptide 20] (H-QLFYPSTYHIID-OH) , EC50 read as 1.3e-10

Notebook: CSCC[C@H](NC(=O)CNC(=O)CN)C(=O)N[C@H]1CSSC[C@@H](C(=O)N[C@@H](CCC(N)=O)C(=O)O)NC(=O)[C@H](Cc2c[nH]c3ccccc23)NC(=O)[C@H](CC(N)=O)NC(=O)[C@H](CC(C)C)NC(=O)[C@H](CC(N)=O)NC(=O)[C@H](CO)NC(=O)[C@H](Cc2ccc(O)cc2)NC(=O)[C@H](Cc2ccccc2)NC(=O)[C@H](CC(C)C)NC(=O)[C@H](CCC(=O)O)NC(=O)[C@H](Cc2c[nH]cn2)NC1=O [Peptide 22] (H-GGMCHELFYSNLNWCQ-OH; disulfide 4-15) , EC50 read as 4.5e-11

Notebook: CSCC[C@@H]1NC(=O)[C@H](CC(=O)O)NC(=O)[C@H](C(C)C)NC(=O)[C@@H](NC(=O)[C@H](Cc2c[nH]cn2)NC(=O)CNC(=O)CN)CSSC[C@@H](C(=O)N[C@@H](CCC(N)=O)C(=O)O)NC(=O)[C@H]([C@@H](C)O)NC(=O)[C@H](CCC(N)=O)NC(=O)[C@H](CCC(N)=O)NC(=O)[C@H](Cc2ccc(O)cc2)NC(=O)[C@H](Cc2ccccc2)NC(=O)[C@H](CC(=O)O)NC(=O)[C@H](C(C)C)NC1=O [Peptide 23] (H-GGHCVDMVDFYQQTCQ-OH; disulfide 4-15) , EC50 read as 3e-10
